These measurements were taken from patent US20200270325A1.

In this section, each of the binders is paired with its reported GCGR EC50 human.
target: human Glucagon receptor (GCGR) (human, UniProt P47871 26-477); assay: cell-based or functional assay
Sequence (P47871 26-477): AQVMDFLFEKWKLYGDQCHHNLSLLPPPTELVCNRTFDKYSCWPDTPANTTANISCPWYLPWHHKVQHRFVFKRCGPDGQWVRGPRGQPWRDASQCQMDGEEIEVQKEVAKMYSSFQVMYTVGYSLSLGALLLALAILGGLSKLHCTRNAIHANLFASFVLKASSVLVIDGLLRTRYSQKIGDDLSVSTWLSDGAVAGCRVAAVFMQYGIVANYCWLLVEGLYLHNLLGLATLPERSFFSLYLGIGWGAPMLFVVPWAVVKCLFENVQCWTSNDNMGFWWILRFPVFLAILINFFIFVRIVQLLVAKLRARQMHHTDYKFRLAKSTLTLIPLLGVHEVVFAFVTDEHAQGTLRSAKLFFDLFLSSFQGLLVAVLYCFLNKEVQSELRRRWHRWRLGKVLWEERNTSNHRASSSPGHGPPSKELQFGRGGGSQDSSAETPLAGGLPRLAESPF
Numbered stars: 1 amine (or outer) side, 2 acyl side, 3 side chain; on linkers, the order of the positions; unused ones are H or OH. Square brackets hold non-standard residues; d marks the D form. Side chains are listed from the residue outwards. Ends that are not written are not given here. * marks the point of attachment. Phe(4-CH2NH2) = NCc1ccc(C[C@H](N)C(=O)O)cc1; C18 diacid = O=C(O)CCCCCCCCCCCCCCCCC(=O)*; C16 diacid = O=C(O)CCCCCCCCCCCCCCC(=O)*; γGlu = O=C(O)[C@H](CCC(=O)[*:2])N[*:1]; Met(O2) = CS(=O)(=O)CC[C@H](N)C(=O)O; αMeD = C[C@](N)(CC(=O)O)C(=O)O; αMeS = C[C@](N)(CO)C(=O)O; AEEA = NCCOCCOCC(=O)O; Aib = CC(C)(N)C(=O)O

Examples from the recorded data:
{"columns": ["BINDER", "RESULT"],
 "data": [
  ["H[Aib]QGTFTSDYSKYLDARAAK([AEEA-AEEA-γGlu-C18 diacid])EFVQWL[Met(O2)][αMeD] (not fully specified (C-terminus); printed as HUQGTFTSDYSKYLDARAAK(PEG2PEG2γEC18-OH)EFVQWL2αMDT-NH2) [TP713]", "1.52 nM"],
  ["H[Aib]QGTFTSDYSKYLD[Aib]RAAQFVQ[Phe(4-CH2NH2)]([AEEA-AEEA-γGlu-C16 diacid])WLLATK-{γGlu-NH2} [TP667]", "> 19.8 nM"],
  ["H[αMeS]QGTFTSD[Phe(4-CH2NH2)]([AEEA-AEEA-γGlu-C16 diacid])SKYLD[Aib]RAAQDFVQWLLATK-{γGlu-NH2} [TP660]", "4.54 nM"],
  ["H[Aib]QGTFTSDYSKYLD[Aib]RAAQDFVQWLLK([AEEA-AEEA-γGlu-C18 diacid])TK-{γGlu-NH2} [TP683]", "4.97 nM"]
]}

Let's switch to this binder now.
According to the records, this binder H[Aib]QGTFTSDYSKYLD[Aib]RAAQDFVK([AEEA-AEEA-γGlu-C20‑OH])WL[Met(O2)]DT-NH2 [TP576] displays GCGR EC50 human of 1.45 nM
